tested-system: recombinant homoisocitrate dehydrogenase (HIcDH) (Candida albicans, UniProt Q5A9D9)
Sequence (Q5A9D9 entry or part of it): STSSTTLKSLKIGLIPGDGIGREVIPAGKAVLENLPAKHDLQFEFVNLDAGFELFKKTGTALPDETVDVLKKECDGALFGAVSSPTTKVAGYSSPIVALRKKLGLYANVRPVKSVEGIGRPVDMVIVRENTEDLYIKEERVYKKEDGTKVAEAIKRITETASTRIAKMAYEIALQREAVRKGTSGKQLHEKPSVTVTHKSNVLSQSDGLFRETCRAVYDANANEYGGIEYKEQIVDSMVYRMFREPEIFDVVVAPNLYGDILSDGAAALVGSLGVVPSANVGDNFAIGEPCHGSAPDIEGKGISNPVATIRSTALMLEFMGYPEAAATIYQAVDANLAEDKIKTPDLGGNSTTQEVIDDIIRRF
test-method-notes: Homoisocitrate dehydrogenase activity, NADH absorption at 340 nm
condition-summary: recombinant C. albicans His-tagged HIcDH, inhibitor 0–10 mM, mean of three determinations ± SD
readout-kind: IC50 (mM)
One number for each entry, in mM.

- molecular-string: "O=C([O-])CC[C@@H](C(=O)[O-])[C@@H](F)C(=O)[O-].[K+].[K+].[K+]"
  output-unit: "mM"
  IC50: 3.22

Now examine the next entry.
Look up IC50: C=CC[C@@H](C(=O)[O-])[C@@H](F)C(=O)[O-].[K+].[K+] 6.78

---

tested-system: recombinant homoaconitase (HA) (Candida albicans, UniProt Q5A644)
Sequence (Q5A644 whole entry): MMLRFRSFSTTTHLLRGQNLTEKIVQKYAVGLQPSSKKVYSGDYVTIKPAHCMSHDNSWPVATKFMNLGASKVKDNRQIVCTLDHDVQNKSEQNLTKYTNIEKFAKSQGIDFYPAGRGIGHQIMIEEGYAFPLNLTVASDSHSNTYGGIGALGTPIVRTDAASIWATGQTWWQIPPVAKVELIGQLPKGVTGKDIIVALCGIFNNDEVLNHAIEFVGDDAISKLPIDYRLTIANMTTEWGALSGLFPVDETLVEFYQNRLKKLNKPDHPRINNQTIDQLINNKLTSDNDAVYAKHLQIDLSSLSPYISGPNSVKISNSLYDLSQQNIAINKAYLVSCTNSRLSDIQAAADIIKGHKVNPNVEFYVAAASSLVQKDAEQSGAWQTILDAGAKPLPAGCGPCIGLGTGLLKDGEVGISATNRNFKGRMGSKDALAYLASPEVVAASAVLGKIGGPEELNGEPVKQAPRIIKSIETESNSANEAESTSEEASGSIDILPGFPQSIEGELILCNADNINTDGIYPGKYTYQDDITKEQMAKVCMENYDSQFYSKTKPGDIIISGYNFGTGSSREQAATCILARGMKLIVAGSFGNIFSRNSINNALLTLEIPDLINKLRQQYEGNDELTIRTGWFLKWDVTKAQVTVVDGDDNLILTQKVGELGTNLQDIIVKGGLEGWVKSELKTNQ
test-method-notes: Homoaconitase activity, coupled reaction with HIcDH, NADH at 340 nm
readout-kind: IC50

Example entries begin here.
- molecule: "O=C(O)CCC1(C(=O)O)OC1C(=O)O (stereo not shown)"
  IC50: "5.76 mM"
- molecule: "C=CC[C@@H](C(=O)[O-])[C@@H](F)C(=O)[O-].[K+].[K+]"
  IC50: "> 10 mM"
- molecule: "O=C([O-])CC[C@@H](C(=O)[O-])[C@@H](F)C(=O)[O-].[K+].[K+].[K+]"
  IC50: "> 10 mM"

Now examine the next entry.
Look up IC50: O=C([O-])/C=C(\CCC(=O)[O-])C(=O)[O-].[K+].[K+].[K+] 1.58 mM

---

Tested on: Candida glabrata DSM 11226
test-method-notes: Antifungal in vitro activity, microplate serial dilution (modified CLSI M27-A3)
Type: cell-based
condition-summary: Nakaseomyces glabratus, DSM11226; RPMI-1640 pH 7.0, 24 h at 37 °C, at least 80% decrease in turbidity; read-out: MIC C. glabrata
Please go through the items and note down their log10(MIC).
Quick note: numbers are log10 of MIC, with µg/mL as the unit.

Example entries begin here.
- molecule: "COC(=O)CCC1(C(=O)OC)OC1C(=O)OC (centres unmarked) [Compound 3]"
  observed-value: 2.11
- molecule: "OC(Cn1cncn1)(Cn1cncn1)c1ccc(F)cc1F [Flu, Fluconazole, reference compound]"
  observed-value: 0.90

Please state, for each entry, its recorded log10(MIC).
1. COC(=O)CC[C@@H](C(=O)OC)[C@@H](F)C(=O)OC [Compound 9]
2. CCCC[C@@H](C(=O)OC)[C@@H](F)C(=O)OC [Compound 6b]
3. C=CC[C@@H](C(=O)OC)[C@@H](F)C(=O)OC [Compound 6c]
4. COC(=O)/C=C(\CCC(=O)OC)C(=O)OC [Compound 1a]

1: 2.41; 2: 2.71; 3: 2.41; 4: 1.20

---

Please go through the items and note down their log10(MIC).
System: Candida tropicalis KKP 334
test-method-notes: Antifungal in vitro activity, microplate serial dilution (modified CLSI M27-A3)
Format: cell-based
condition-summary: KKP334, RPMI-1640 pH 7.0, 24 h at 37 °C, at least 80% decrease in turbidity, read-out: MIC C. tropicalis
Quick note: numbers are log10 of MIC, with µg/mL as the unit.

Please state, for each entry, its recorded log10(MIC).
1. COC(=O)/C=C(\CCC(=O)OC)C(=O)OC
2. COC(=O)CCC1(C(=O)OC)OC1C(=O)OC (centres unmarked)

1: 1.51; 2: 2.11

---

Tested on: Candida tropicalis KKP 334
test-method-notes: Antifungal in vitro activity, microplate serial dilution (modified CLSI M27-A3)
Type: cell-based
condition-summary: KKP334, RPMI-1640 pH 7.0, 24 h at 37 °C, at least 80% decrease in turbidity, read-out: MIC C. tropicalis
readout-kind: MIC (µg/mL)
Answers are plain numbers, in µg/mL.

Example entries begin here.
- compound: "C=CC[C@@H](C(=O)OC)[C@@H](F)C(=O)OC"
  tested-system: "Candida tropicalis KKP 334"
  output-unit: "µg/mL"
  MIC: 256
- compound: "COC(=O)CC[C@@H](C(=O)OC)[C@@H](F)C(=O)OC"
  tested-system: "Candida tropicalis KKP 334"
  output-unit: "µg/mL"
  MIC: 64
- compound: "OC(Cn1cncn1)(Cn1cncn1)c1ccc(F)cc1F [Flu, Fluconazole, reference compound]"
  tested-system: "Candida tropicalis KKP 334"
  output-unit: "µg/mL"
  MIC: 2

Now examine the next entry.
Look up MIC: CCCC[C@@H](C(=O)OC)[C@@H](F)C(=O)OC 128
